Some compounds, each annotated with its measured TGI.
Tested on: NCI-H23 lung
Test description: NCI tumour cell line growth inhibition, 48 h
Measured attribute: TGI (µM)

>>> endpoint_result("O=[N+]([O-])/C=C1\\COCc2cc3c(cc21)OCO3")
27.1
>>> endpoint_result("COc1cccc(C=Nc2cc(C)ccn2)c1O.COc1cccc(C=Nc2cc(C)ccn2)c1O.[Cu]")
49.4
>>> endpoint_result("C=C1CC2OC2(C(=O)O[C@H]2CCC3[C@@H]4CCC5=CC(=O)CC[C@]5(C)C4CC[C@@]32C)C1=O (stereo not given in full)")
27.3

---

Recorded TGI values for a group of compounds are listed next.
Test system: DMS 114 small cell lung
Test description: NCI tumour cell line growth inhibition, 48 h
Measured attribute: TGI

>>> endpoint_result("Cc1cc(N(CCC#N)CCC#N)ccc1/C=C/C(=O)Nc1cccc(Cl)c1")
"> 100 µM"
>>> endpoint_result("CCOC(=O)C1Oc2ccc([N+](=O)[O-])c3c2C1(O)CCC3 (stereo not drawn)")
"> 100 µM"
>>> endpoint_result("C=CCc1cc(OC)c2c(c1)C(O)CC(c1ccccc1)O2 (stereo not drawn)")
"> 100 µM"
>>> endpoint_result("COc1ccc(OC)c(NC(=O)CCC/C(CC(=O)c2ccc(O)c(OC)c2)=N\\NC(=O)C[N+](C)(C)C)c1")
"> 100 µM"
>>> endpoint_result("COc1cc(OC)c(/C=C2\\N=C(C)N(Nc3nnc(NN4C(=O)/C(=C/c5c(OC)cc(OC)cc5OC)N=C4C)c4ccccc34)C2=O)c(OC)c1")
"> 100 µM"
>>> endpoint_result("CN(C)CCCNC(=O)N/N=C/c1cccc([N+](=O)[O-])c1")
"> 100 µM"
>>> endpoint_result("N#CC(C(=O)CCC(=O)Nc1cccc(Cl)c1)c1ccccc1 (stereo not drawn)")
"> 100 µM"
>>> endpoint_result("CCOC(=O)c1oc2ccc(OC)c3c2c1CCC3")
"> 100 µM"
>>> endpoint_result("CCOC(=O)C(C)(c1cn(C)c2ccccc12)c1cn(C)c2ccccc12")
"> 100 µM"
>>> endpoint_result("CN(CCO)c1nc2c(c(=O)[nH]1)CCC2")
"> 100 µM"
>>> endpoint_result("C=C1CC2OC2(C(=O)O[C@H]2CCC3[C@@H]4CCC5=CC(=O)CC[C@]5(C)C4CC[C@@]32C)C1=O (stereo partly drawn)")
"10.4 µM"
>>> endpoint_result("Brc1cccc(C2SCc3nc4ccccc4n32)c1 (stereo not drawn)")
"35.2 µM"
>>> endpoint_result("COc1ccc(N=c2ssc3c(=S)ssc23)cc1")
"26 µM"
>>> endpoint_result("CCO[C@]12C[C@H](OC)[C@@]3(O)CC(C1[C@H]3OCc1ccccc1)C13C4C2[C@H](OC)C1[C@](COC)(CN4CC)[C@H](O)C[C@@H]3OC (stereo partly drawn)")
"> 100 µM"
>>> endpoint_result("CCCCCCc1cc(C(=O)Nc2cccc(C(F)(F)F)c2)nc(N)n1")
"> 100 µM"
>>> endpoint_result("COc1ccc(NC(=O)C/C(C)=N\\N=C(N)N)c([N+](=O)[O-])c1")
"> 100 µM"
>>> endpoint_result("CCOC(=O)C1=C(NC)OC/C1=N\\NC(=O)c1ccccc1O")
"89.6 µM"
>>> endpoint_result("CC(=O)OC1CCn2nnc(CO[Si](C)(C)C(C)(C)C)c21 (stereo not drawn)")
"> 100 µM"

---

Listed below: TGI values for each entry.
Tested on: COLO 205 colon
Test description: NCI tumour cell line growth inhibition, 48 h
Measured attribute: TGI

>>> endpoint_result("CCC1(CC)CC(=NNS(=O)(=O)c2ccc(C)cc2)C1")
"> 100 µM"
>>> endpoint_result("COC(=O)C1=CSC2(S1)C(C(=O)OC)=CSc1c2ssc1=Nc1ccccc1 (stereo not drawn)")
"4.37 µM"
>>> endpoint_result("c1ccc2c(C3NCCc4[nH]cnc43)cccc2c1 (stereo not drawn)")
"> 100 µM"
>>> endpoint_result("CCOC(=O)c1oc2ccc(OC)c3c2c1CCC3")
"> 100 µM"
>>> endpoint_result("COc1ccc(N2C(=O)C3c4[nH]c5c(C)cccc5c4C4CCC(C(C)(C)C)CC4C3C2=O)cc1 (stereo not drawn)")
"> 10 µM"
>>> endpoint_result("CCOC(=O)C1=C(NC)OC/C1=N\\NC(=O)c1ccccc1O")
"> 100 µM"
>>> endpoint_result("NNC(=O)c1ccc(-n2nnc(C(=O)NN)c2C(=O)NN)cc1")
"> 100 µM"
>>> endpoint_result("CCOc1ccc2nc(NC(=O)c3c/c(=N\\NC(=O)C[N+](C)(C)C)c4ccc(O)cc4o3)sc2c1")
"20.7 µM"
>>> endpoint_result("C[Si](C)(C)OC1(C#N)C2C3CC4C2C(=O)C2C4C3C21 (stereo not drawn)")
"> 100 µM"
>>> endpoint_result("COc1cccc(C=Nc2cc(C)ccn2)c1O.COc1cccc(C=Nc2cc(C)ccn2)c1O.[Cu]")
"42.8 µM"
>>> endpoint_result("CC(CN1CCN(CCOCCO)CC1)CN1c2ccccc2Sc2ccc(Cl)cc21 (stereo not drawn)")
"3.18 µM"
>>> endpoint_result("O=C1OC(CCCl)(c2ccccc2)CC1CN1CCOCC1 (stereo not drawn)")
"35.4 µM"
>>> endpoint_result("COC1CC(OS(=O)(=O)c2ccc(C)cc2)C(OC(=O)c2ccccc2)C(C)O1 (stereo not drawn)")
"> 100 µM"
>>> endpoint_result("O=c1oc2ccccc2c(Nc2ccc3c(c2)S(=O)(=O)c2ccccc2O3)c1[N+](=O)[O-]")
"47.6 µM"
>>> endpoint_result("COc1ccc2[nH]c3c(c2c1)CCn1c-3nc2ccccc2c1=O")
"> 25 µM"
>>> endpoint_result("COc1cc(OC)c(OC)cc1/C=N/N=C(\\N)NO")
"> 100 µM"
>>> endpoint_result("CN1CCCCC1CCN1CCCCC1 (stereo not drawn)")
"> 100 µM"
>>> endpoint_result("CC(=O)OC1C(O)COC(O[C@H]2CC[C@]34C[C@]35CC[C@]3(C)C([C@@]6(C)CC[C@@H](C(C)(C)O)O6)[C@@H](O)C[C@@]3(C)C5C[C@H](OC3OCC(O)C(O)C3O)[C@H]4C2(C)C)C1OC1OCC(O)C(O)C1O (stereo partly drawn)")
"> 100 µM"
>>> endpoint_result("CCOC(=O)c1c(N2CCCC2)nsc1Nc1ccccc1")
"> 100 µM"
>>> endpoint_result("C=CC(=O)Nc1cccc(C)c1Nc1cc(-c2cccnc2Cc2c(C)c(OC)cc(OC)c2C)ncn1")
"> 100 µM"
>>> endpoint_result("CC1=NN(c2ccccc2)C(=O)/C1=C/c1ccc(O)cc1")
"> 100 µM"
>>> endpoint_result("CS(=O)(=O)Oc1cccc(/C=N/N=C(\\N)NO)c1")
"> 100 µM"
>>> endpoint_result("O=S(=O)(c1ccccc1)C(CN1CCCCC1)S(=O)(=O)c1ccccc1")
"> 100 µM"
>>> endpoint_result("CSc1nc(N)c(NC2OC(CO)C(O)C2O)c(=O)[nH]1 (stereo not drawn)")
"> 100 µM"
>>> endpoint_result("CN(/N=C(\\C(=O)O)c1ccccc1)C1=NCCCN1")
"> 100 µM"
>>> endpoint_result("CN(C)CCNc1nc(-c2ccc3ccccc3c2)nc2nc[nH]c12")
"21.7 µM"
>>> endpoint_result("C=CC(=O)N(C)[C@H]1C[C@H]2OC(C)(C1OC)n1c3ccccc3c3c4c(c5c6ccccc6n2c5c31)C(=O)NC4 (stereo partly drawn)")
"0.253 µM"
>>> endpoint_result("Brc1cccc(C2SCc3nc4ccccc4n32)c1 (stereo not drawn)")
"38.6 µM"
>>> endpoint_result("COC(=O)C1CC2(CCC1=O)Cc1ccccc1C2=O (stereo not drawn)")
"> 100 µM"
>>> endpoint_result("N/C(=N\\N=C\\c1ccc(-c2ccccc2)cc1)N[N+](=O)[O-]")
"> 42.1 µM"
>>> endpoint_result("O=C(NN1C(=O)CSC12CCCCC2)c1[nH]c2ccc(F)cc2c1-c1ccccc1")
"> 100 µM"
>>> endpoint_result("CN(CCO)c1nc2c(c(=O)[nH]1)CCC2")
"> 100 µM"
>>> endpoint_result("O=C(O)C1(P(=O)(O)O)CC1")
"> 100 µM"
>>> endpoint_result("O=C(c1ccccc1)C(CN1CCOCC1)c1ccccc1 (stereo not drawn)")
"3.32 µM"
>>> endpoint_result("Cc1ccc(-c2nc3ccc(Cl)cc3[nH]2)cc1")
"> 100 µM"
>>> endpoint_result("O=C(N/N=C/c1ccc2c(c1)CCC2)c1ccccc1O")
"> 100 µM"
>>> endpoint_result("NC(=O)CCCC(NCc1c2ccccc2nc2ccccc12)C(=O)O (stereo not drawn)")
"> 100 µM"
>>> endpoint_result("C/C(=N\\Nc1ccc2ccccc2n1)c1ccccn1")
"2.7 µM"
>>> endpoint_result("CN1CCN(Cc2ccc(NC(=O)c3cncc(C#Cc4cnc(N)c5ccncc45)c3)cc2C(F)(F)F)CC1")
"1.95 µM"
>>> endpoint_result("CCOC(=O)C1Oc2ccc([N+](=O)[O-])c3c2C1(O)CCC3 (stereo not drawn)")
"> 100 µM"
>>> endpoint_result("CC1=C(CCC(C)N(C)Cc2ccc(OCCCN3CCCC3)cc2)C(C)(C)CCC1 (stereo not drawn)")
"3.42 µM"
>>> endpoint_result("CC1=C(N2CC2)C(=O)c2nc3n(c2C1=O)CCC3OC(=O)CCl (stereo not drawn)")
"0.444 µM"
>>> endpoint_result("COc1c2c(cc3oc(C)cc(=O)c13)OC(=N)C(C(N)=O)C2CC(=O)c1ccc(N)cc1 (stereo not drawn)")
"> 100 µM"
